// provenance: patent US20240279249A1

Experimental Details: Film retention rate / solvent resistance: UV-vis absorption of heat-treated film after immersion in cyclohexanone
Assay type: physicochemical
Condition Summary: film from 4 wt % solution in cyclohexanone, 100 nm on quartz, heat-treated 190° C. to 200° C. in nitrogen 30 minutes, immersed in cyclohexanone 10 minutes; higher absorbance = more film retained
Overview of reported Absorbance @ 350 nm across a group of molecules:
Quantity Measured: Absorbance @ 350 nm

[[record]]
molecule = "C=Cc1cc(C=C)cc(-c2c(F)c(F)c(-c3c(F)c(F)c([B-](c4c(F)c(F)c(C(F)(F)F)c(F)c4F)(c4c(F)c(F)c(C(F)(F)F)c(F)c4F)c4c(F)c(F)c(C(F)(F)F)c(F)c4F)c(F)c3F)c(F)c2F)c1"
numeric_readout = 0.801

[[record]]
molecule = "Cc1ccc([I+]c2ccc(C(C)C)cc2)cc1.Fc1c(F)c([B-](c2c(F)c(F)c(C(F)(F)F)c(F)c2F)(c2c(F)c(F)c(C(F)(F)F)c(F)c2F)c2c(F)c(F)c(C(F)(F)F)c(F)c2F)c(F)c(F)c1-c1ccc2c(c1)CC2 [Comparative Compound 3, reference compound]"
numeric_readout = 0.392

[[record]]
molecule = "C=Cc1c(F)c(F)c([B-](c2c(F)c(F)c(C(F)(F)F)c(F)c2F)(c2c(F)c(F)c(C(F)(F)F)c(F)c2F)c2c(F)c(F)c(C(F)(F)F)c(F)c2F)c(F)c1F.Cc1ccc([I+]c2ccc(C(C)C)cc2)cc1 [Comparative Compound 2, reference compound]"
numeric_readout = 0.526

[[record]]
molecule = "C=Cc1ccc(-c2c(F)c(F)c(-c3c(F)c(F)c([B-](c4c(F)c(F)c(C(F)(F)F)c(F)c4F)(c4c(F)c(F)c(C(F)(F)F)c(F)c4F)c4c(F)c(F)c(C(F)(F)F)c(F)c4F)c(F)c3F)c(F)c2F)c2ccccc12"
numeric_readout = 0.603

[[record]]
molecule = "C=Cc1ccc(-c2c(F)c(F)c([B-](c3c(F)c(F)c(-c4ccc(C=C)cc4)c(F)c3F)(c3c(F)c(F)c(-c4ccc(C=C)cc4)c(F)c3F)c3c(F)c(F)c(-c4ccc(C=C)cc4)c(F)c3F)c(F)c2F)cc1.Cc1ccc([I+]c2ccc(C(C)C)cc2)cc1 [Comparative Compound 4, reference compound]"
numeric_readout = 0.467

[[record]]
molecule = "C=Cc1ccc([B-](c2c(F)c(F)c(C(F)(F)F)c(F)c2F)(c2c(F)c(F)c(C(F)(F)F)c(F)c2F)c2c(F)c(F)c(C(F)(F)F)c(F)c2F)cc1.Cc1ccc([I+]c2ccc(C(C)C)cc2)cc1 [Comparative Compound 1, reference compound]"
numeric_readout = 0.483

[[record]]
molecule = "C=Cc1ccc(-c2cc(-c3ccc(C=C)cc3)cc(-c3c(F)c(F)c(-c4c(F)c(F)c([B-](c5c(F)c(F)c(C(F)(F)F)c(F)c5F)(c5c(F)c(F)c(C(F)(F)F)c(F)c5F)c5c(F)c(F)c(C(F)(F)F)c(F)c5F)c(F)c4F)c(F)c3F)c2)cc1.Cc1ccc([I+]c2ccc(C(C)C)cc2)cc1"
numeric_readout = 0.813

[[record]]
molecule = "Fc1c(F)c(-c2c(F)c(F)c([B-](c3c(F)c(F)c(C(F)(F)F)c(F)c3F)(c3c(F)c(F)c(C(F)(F)F)c(F)c3F)c3c(F)c(F)c(C(F)(F)F)c(F)c3F)c(F)c2F)c(F)c(F)c1-c1ccc2c(c1)CC2"
numeric_readout = 0.546

